Target: T1, FZD2 CRD (Homo sapiens, UniProt Q14332)
T1 construct: D35-P161; GPI anchor signal (C); expressed in transfected cells; host or cells: CHO cells, lentiviral pLenti-puro
Assay: Flow cytometry of anti-FZD5 Fab binding to CHO cells overexpressing Frizzled CRD
Protocol: Plasmids: pLCKO lentiviral vector used for knockout (TKO) library construction and expression of individual gRNAs was constructed as described previously (Hart et al., 2015). […] Flow cytometry: Primary staining of cells was performed by treatment with 200 nM Frizzled profiler Fab. […] Flow cytometry was performed on a BD FACSCanto II flow cytometer (BD Biosciences), and data were analyzed with FlowJo software (FlowJo, LLC). […]
measured-quantity: Median fluorescence, Frizzled CRD overexpressed on CHO cells: FZD2
Response field accepts a number only; no unit should be typed.

Record Fab-2900: anti-FZD5 Fab with antibody variable region Fv-2900; CDR SEQ ID NOs: 35, 36, 39, 78, 115, 153 (antibody, V domains shown) VH: EVQLVESGGGLVQPGGSLRLSCAASGFNLSSYYIHWVRQAPGKGLEWVASISSSSSSTSYADSVKGRFTISADTSKNTAYLQMNSLRAEDTAVYYCARGALDYWGQGTLVTVSS VL: DIQMTQSPSSLSASVGDRVTITCRASQSVSSAVAWYQQKPGKAPKLLIYSASSLYSGVPSRFSGSRSGTDFTLTISSLQPEDFATYYCQQWYSGSSLFTFGQGTKVEIK , field Median fluorescence, Frizzled CRD overexpressed on CHO cells: FZD2: 6.15

Item: Fab-2903: anti-FZD5 Fab with antibody variable region Fv-2903; CDR SEQ ID NOs: 35, 36, 42, 81, 118, 155 (antibody, V domains shown) VH: EVQLVESGGGLVQPGGSLRLSCAASGFNLSYYYIHWVRQAPGKGLEWVASIYPYSSYTSYADSVKGRFTISADTSKNTAYLQMNSLRAEDTAVYYCARGAIDYWGQGTLVTVSS VL: DIQMTQSPSSLSASVGDRVTITCRASQSVSSAVAWYQQKPGKAPKLLIYSASSLYSGVPSRFSGSRSGTDFTLTISSLQPEDFATYYCQQWGGGSSLFTFGQGTKVEIK | Median fluorescence, Frizzled CRD overexpressed on CHO cells: FZD2: 10.84

Short answer for Fab-2925: anti-FZD5 Fab with antibody variable region Fv-2925; CDR SEQ ID NOs: 35, 36, 64, 102, 140, 172 (antibody, V domains shown) VH: EVQLVESGGGLVQPGGSLRLSCAASGFNLSYSSMHWVRQAPGKGLEWVASIYPSYGSTYYADSVKGRFTISADTSKNTAYLQMNSLRAEDTAVYYCARYGYFGLDYWGQGTLVTVSS VL: DIQMTQSPSSLSASVGDRVTITCRASQSVSSAVAWYQQKPGKAPKLLIYSASSLYSGVPSRFSGSRSGTDFTLTISSLQPEDFATYYCQQAWVYASLFTFGQGTKVEIK : Median fluorescence, Frizzled CRD overexpressed on CHO cells: FZD2 was 10.65
